system: 817829-284-R-J1-PDC complex spheroids, viability; assay: Anticancer human tumor 817829-284-R-J1-PDC patient-derived colon adenocarcinoma cell line growth inhibition [CLK]; details: second compound 0.1 µM; first compound 3.16 µM; active compounds read low;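 note: spheroids exposed to the agents for seven days before readout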
ASSAY_METRIC: viability, T/C (%)
One number for each entry, in %.

- MOLECULE: "O=c1[nH]cc(F)c(=O)[nH]1 + CN1CCN(c2cc(C(=O)Nc3cc4cc(-c5cnn(C)c5)ccc4cn3)ccn2)CC1"
  UNITS_LABEL: "%"
  viability, T/C: 18.9
- MOLECULE: "Nc1ccn(C2OC(CO)C(O)C2(F)F)c(=O)n1 (centres undefined) + CN1CCN(c2cc(C(=O)Nc3cc4cc(-c5cnn(C)c5)ccc4cn3)ccn2)CC1"
  UNITS_LABEL: "%"
  viability, T/C: 3.1
- MOLECULE: "CC(Nc1ccc2c(c1)OCCn1cc(N3C(=O)OCC3C(F)F)nc1-2)C(N)=O (centres undefined) + CNC(=O)c1ccc(Nc2nc(OC3CCCC3)c3c(-c4ccc5nc(C)oc5c4)c[nH]c3n2)c(OC)c1"
  UNITS_LABEL: "%"
  viability, T/C: 33.4
- MOLECULE: "O=C(c1cc(Cc2n[nH]c(=O)c3ccccc23)ccc1F)N1CCN(C(=O)C2CC2)CC1 + CN1CCN(c2cc(C(=O)Nc3cc4cc(-c5cnn(C)c5)ccc4cn3)ccn2)CC1"
  UNITS_LABEL: "%"
  viability, T/C: 17.8

Each molecule below has a recorded value; state its viability, T/C.
1. CC(=O)O[C@H]1C(=O)[C@@]2(C)[C@H]([C@H](OC(=O)c3ccccc3)[C@]3(O)C[C@H](OC(=O)[C@H](O)[C@@H](NC(=O)c4ccccc4)c4ccccc4)C(C)=C1C3(C)C)[C@]1(OC(C)=O)CO[C@@H]1C[C@@H]2O + CNC(=O)c1ccc(Nc2nc(OC3CCCC3)c3c(-c4ccc5nc(C)oc5c4)c[nH]c3n2)c(OC)c1
2. COC1C=CCC(C)C(C)S(=O)(=O)NC(=O)c2ccc3c(c2)N(CC2CCC21)CC1(CCCc2cc(Cl)ccc21)CO3 (centres undefined) + CN1CCN(c2cc(C(=O)Nc3cc4cc(-c5cnn(C)c5)ccc4cn3)ccn2)CC1
3. C=C(F)C(=O)N1CCN(c2nc(OCC3CCCN3C)nc3c2CCN(c2cccc4cccc(Cl)c24)C3)CC1CC#N (centres undefined) + CNC(=O)c1ccc(Nc2nc(OC3CCCC3)c3c(-c4ccc5nc(C)oc5c4)c[nH]c3n2)c(OC)c1
4. C=CC(=O)N1CCN(c2nc(=O)n(-c3c(C)ccnc3C(C)C)c3nc(-c4c(O)cccc4F)c(F)cc23)C(C)C1 (centres undefined) + CNC(=O)c1ccc(Nc2nc(OC3CCCC3)c3c(-c4ccc5nc(C)oc5c4)c[nH]c3n2)c(OC)c1
5. CC(=O)O[C@H]1C(=O)[C@@]2(C)[C@H]([C@H](OC(=O)c3ccccc3)[C@]3(O)C[C@H](OC(=O)[C@H](O)[C@@H](NC(=O)c4ccccc4)c4ccccc4)C(C)=C1C3(C)C)[C@]1(OC(C)=O)CO[C@@H]1C[C@@H]2O + CN1CCN(c2cc(C(=O)Nc3cc4cc(-c5cnn(C)c5)ccc4cn3)ccn2)CC1

Key:
1. 28.9
2. 5.31
3. 16.1
4. 22.2
5. 4.74
